- System: HEK293 cells
- protocol-text: Preliminary screening as DNA vectors, GFP transfection of HEK293 cells
- Format: cell-based
- settings: HEK293 cells; lipid/DOPE liposome with 75 ng plasmid DNA (psin-EGFP-IRES-Puro); number of cells expressing GFP divided by total number of nuclei (Hoechst)
recorded-endpoint: Absolute DNA transfection efficiency in HEK293 cells (%)
Give the quantity in %, number only.

Consider the worked cases shown below.
{"columns": ["smiles-code", "value-reported"],
 "data": [
  ["CCCCCCCCCCCCCCCCCCSc1nc(NCCN2CCN(C)CC2)nc(SCCCCCCCCCC)n1", 3.7],
  ["CCCCCCCCCCCCCCCCCCNc1nc(NCCCCCCCC)nc(NCCN2CCCC2)n1", 9.8],
  ["CCCCCCCCCCCCCCCCNc1nc(NCCCCCCCCCCCCC)nc(NCCN2CCOCC2)n1", 0.0],
  ["CCCCCCCCCCCCCCCCSc1nc(NCCN2CCN(C)CC2)nc(SCCCCCCCC)n1", 3.7],
  ["CCCCCCCCCCCCCCCSc1nc(NCCN2CCCCC2)nc(SCCCCCCCCCC)n1", 7.5]
]}

// Absolute DNA transfection efficiency in HEK293 cells (HEK293 cells) for CCCCCCCCCCCCCCCNc1nc(NCCCCCCCCCCC)nc(NCCN(C)C)n1 = 1.3

So the reported Absolute DNA transfection efficiency in HEK293 cells for CCCCCCCCCCCCCCCNc1nc(NCCCCCCCCCCCCCCC)nc(NCCCN(C)C)n1 , on HEK293 cells, turned out to be 1.5

The reported Absolute DNA transfection efficiency in HEK293 cells value, HEK293 cells, for CCCCCCCCCCCCCCCCNc1nc(NCCCCCCCCCCCCCCCC)nc(NCCN2CCN(C)CC2)n1 reads 0.0

Known value: HEK293 cells Absolute DNA transfection efficiency in HEK293 cells of the compound CCCCCCCCCCCNc1nc(NCCCCCC)nc(NCCN2CCN(C)CC2)n1 equals 0.1

Tested on HEK293 cells: CCCCCCCNc1nc(NCCCCCC)nc(NCCN(C)C)n1 . Observed Absolute DNA transfection efficiency in HEK293 cells: 0.0
